protocol: Determination of compound Cmax and AUC after oral gavage (plasma LC-MS/MS)
Type: in vivo, Sprague-Dawley rats
recorded-conditions: Sprague-Dawley, Structure (I) examples, Table 15, rat, actual oral dose 3-15 mg/kg, plasma 0.5-4 h
measured-parameter: Cmax

IN: Endpoint output: Cmax of CN(CCN1CCOCC1)C(=O)c1cccc(C(=O)Nc2ccc(N3CCCCC3)cc2-c2cc(C(=O)N[C@H]3CCCc4ccccc43)ccn2)c1.Cl [Example 37] . Value?
OUT: < 10 ng/mL

* * *

I'd be grateful if you could share measured AUC for these entries.
protocol: Determination of compound Cmax and AUC after oral gavage (plasma LC-MS/MS)
Assay type: in vivo, Sprague-Dawley rats
recorded-conditions: Sprague-Dawley, rat, plasma, po, Structure (I) examples, Table 15, actual oral dose 3-15 mg/kg, plasma 0.5-4 h

IN: Endpoint output: AUC of `O=C(O)Cc1cccc(SCc2cccc(C(=O)Nc3ccc(N4CCCCC4)cc3-c3cc(C(=O)N[C@H]4CCCc5ccccc54)ccn3)c2)c1` . Value?
OUT: < 30 ng·h/mL

IN: Endpoint output: AUC of `COCCOCCOCCOCCOCCOCCOCCN(C)CCN(C)C(=O)c1cccc(C(=O)Nc2ccc(N3CCCCC3)cc2-c2cc(C(=O)N[C@H]3CCCc4ccccc43)ccn2)c1` . Value?
OUT: < 50 ng·h/mL

IN: Endpoint output: AUC of `O=C(O)CCOCCOCCOCCOCCSCc1cccc(C(=O)Nc2ccc(N3CCCCC3)cc2-c2cc(C(=O)N[C@H]3CCCc4ccccc43)ccn2)c1` . Value?
OUT: < 10 ng·h/mL

IN: Endpoint output: AUC of `CCN(CC)c1ccc(NC(=O)c2cccc(CCCOCCOCCOCCOCCOCCOCCOCCOCCOC)c2)c(-c2cc(C(=O)NCc3cccc(C(F)(F)F)c3)ccn2)c1` . Value?
OUT: < 10 ng·h/mL

IN: Endpoint output: AUC of `CCN(CC)c1ccc(NC(=O)c2cccc(CSCCOCCOCCOCCOCCC(=O)NCCOCCOCCOCCOCCOCCOCCOCCOC)c2)c(-c2cc(C(=O)N[C@H]3CCCc4ccccc43)ccn2)c1` . Value?
OUT: < 30 ng·h/mL

IN: Endpoint output: AUC of `O=C(O)CCOCCOCCOCCOCCCc1cccc(C(=O)Nc2ccc(OC3CCC3)cc2-c2cc(C(=O)N[C@H]3CCCc4ccccc43)ccn2)c1` . Value?
OUT: < 50 ng·h/mL

IN: Endpoint output: AUC of `CCN(CC)c1ccc(NC(=O)c2cccc(C(=O)N(C)CCN3CCCN(C(=O)OCCOCCOCCOCCOCCOCCOCCOCCOCCOCCOCCOC)CC3)c2)c(-c2cc(C(=O)N[C@H]3CCCc4ccccc43)ccn2)c1` . Value?
OUT: < 10 ng·h/mL

IN: Endpoint output: AUC of `CN(CCCN1CCOCC1)C(=O)c1cccc(C(=O)Nc2ccc(N3CCCCC3)cc2-c2cc(C(=O)N[C@H]3CCCc4ccccc43)ccn2)c1` . Value?
OUT: < 30 ng·h/mL

IN: Endpoint output: AUC of `O=C(O)CCOCCOCCOCCNC(=O)c1cccc(SCc2cccc(C(=O)Nc3ccc(N4CCCCC4)cc3-c3cc(C(=O)N[C@H]4CCCc5ccccc54)ccn3)c2)c1` . Value?
OUT: < 10 ng·h/mL

IN: Endpoint output: AUC of `CCN(CC)c1ccc(NC(=O)c2cccc(CSCCOCCOCCOCCOCCOCCOCCOCCOCCC(=O)O)c2)c(-c2cc(C(=O)N[C@H]3CCCc4ccccc43)ccn2)c1` . Value?
OUT: < 10 ng·h/mL

IN: Endpoint output: AUC of `COCCN(C)C(=O)N1CCN(CCN(C)C(=O)c2cccc(C(=O)Nc3ccc(N4CCCCC4)cc3-c3cc(C(=O)NCc4cccc(C(F)(F)F)c4)ccn3)c2)CC1` . Value?
OUT: < 30 ng·h/mL

IN: Endpoint output: AUC of `CN(CCN1CCOCC1)C(=O)CCOCCOCCOCCOCCSCc1cccc(C(=O)Nc2ccc(N3CCCCC3)cc2-c2cc(C(=O)NCc3cccc(C(F)(F)F)c3)ccn2)c1` . Value?
OUT: < 10 ng·h/mL

IN: Endpoint output: AUC of `CN1CCN(CCN(C)C(=O)c2cccc(C(=O)Nc3ccc(N4CCCCC4)cc3-c3cc(C(=O)N[C@H]4CCCc5ccccc54)ccn3)c2)CC1=O` . Value?
OUT: < 10 ng·h/mL

IN: Endpoint output: AUC of `CCN(CC)c1ccc(NC(=O)c2cccc(COCCOCCOCCOCCOCCOCCO)c2)c(-c2cc(C(=O)NCc3cccc(C(F)(F)F)c3)ccn2)c1` . Value?
OUT: < 30 ng·h/mL

IN: Endpoint output: AUC of `COCCN(C)C(=O)N1CCN(CCN(C)Cc2cccc(C(=O)Nc3ccc(N4CCCCC4)cc3-c3cc(C(=O)NCc4cccc(C(F)(F)F)c4)ccn3)n2)CC1` . Value?
OUT: < 30 ng·h/mL

IN: Endpoint output: AUC of `CCN(CC)c1ccc(NC(=O)c2cccc(CSCCOCCOCCOCCOCCC(=O)N(CCO)CCO)c2)c(-c2cc(C(=O)N[C@H]3CCCc4ccccc43)ccn2)c1` . Value?
OUT: < 10 ng·h/mL

IN: Endpoint output: AUC of `O=C(NCc1cccc(C(F)(F)F)c1)c1ccnc(-c2cc(N3CCCCC3)ccc2NC(=O)c2cccc(CSc3ccc(C(=O)O)c(Br)c3)c2)c1` . Value?
OUT: < 30 ng·h/mL

IN: Endpoint output: AUC of `O=C(CCOCCOCCOCCOCCSCc1cccc(C(=O)Nc2ccc(N3CCCCC3)cc2-c2cc(C(=O)NCc3cccc(C(F)(F)F)c3)ccn2)c1)NCCN1CCOCC1` . Value?
OUT: < 10 ng·h/mL

IN: Endpoint output: AUC of `CN(CC(=O)N1CCN(CCOCCO)CC1)C(=O)c1cccc(C(=O)Nc2ccc(N3CCCCC3)cc2-c2cc(C(=O)N[C@H]3CCCc4ccccc43)ccn2)c1` . Value?
OUT: < 10 ng·h/mL

IN: Endpoint output: AUC of `O=C(NCc1cccc(C(F)(F)F)c1)c1ccnc(-c2cc(N3CCCCC3)ccc2NC(=O)c2cccc(CSCCOCCOCCOCCOCCC(=O)N(CCO)CCO)c2)c1` . Value?
OUT: < 10 ng·h/mL

IN: Endpoint output: AUC of `CN(CCOCCOCCOCCC(=O)O)C(=O)c1cccc(C(=O)Nc2ccc(Cl)cc2-c2cc(C(=O)NCc3cccc(C(F)(F)F)c3)ccn2)c1` . Value?
OUT: < 10 ng·h/mL

IN: Endpoint output: AUC of `CCN(CC)c1ccc(NC(=O)c2cccc(C(=O)N(C)CCN3CCC[C@H]3C(=O)NCCOCCOCCOCCOCCOCCOCCOCCOC)c2)c(-c2cc(C(=O)N[C@H]3CCCc4ccccc43)ccn2)c1` . Value?
OUT: > 50 ng·h/mL

* * *

system-name: rat NaP2b (SLC34A2) (Rattus norvegicus, UniProt Q9JJ09)
Construct: host or cells: HEK293
Sequence (Q9JJ09 whole entry): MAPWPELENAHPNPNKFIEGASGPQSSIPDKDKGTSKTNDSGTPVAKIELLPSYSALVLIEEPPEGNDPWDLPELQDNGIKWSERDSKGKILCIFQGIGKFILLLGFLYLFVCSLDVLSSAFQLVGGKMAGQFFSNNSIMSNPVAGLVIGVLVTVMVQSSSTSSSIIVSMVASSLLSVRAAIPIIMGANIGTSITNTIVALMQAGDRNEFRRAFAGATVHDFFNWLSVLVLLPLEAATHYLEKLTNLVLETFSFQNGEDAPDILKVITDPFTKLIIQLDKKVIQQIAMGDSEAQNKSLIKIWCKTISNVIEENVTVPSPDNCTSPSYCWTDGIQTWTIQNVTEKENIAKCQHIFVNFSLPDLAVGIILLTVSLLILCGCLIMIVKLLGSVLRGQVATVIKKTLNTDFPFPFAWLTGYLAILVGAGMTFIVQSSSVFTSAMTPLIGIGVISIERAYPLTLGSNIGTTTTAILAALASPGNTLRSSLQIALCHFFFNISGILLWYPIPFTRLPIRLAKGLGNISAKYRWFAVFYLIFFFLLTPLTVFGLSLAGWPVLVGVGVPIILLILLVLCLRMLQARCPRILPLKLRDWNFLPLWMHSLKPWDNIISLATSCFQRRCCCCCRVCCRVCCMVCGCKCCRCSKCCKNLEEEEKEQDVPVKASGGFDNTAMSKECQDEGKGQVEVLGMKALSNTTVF
protocol: Inhibition of NaP2b-mediated Pi (33P) uptake in transfected HEK293 cells, rat NaP2b
Format: cell-based
recorded-conditions: 33P Pi uptake, 0.1 mM phosphate, value given as pIC50 range
measured-parameter: IC50

IN: Given the entry `O=C(O)c1cccc(COCc2cccc(C(=O)Nc3ccc(N4CCCCC4)cc3-c3cc(C(=O)NCc4cccc(C(F)(F)F)c4)ccn3)c2)c1` , what IC50 was observed with rat NaP2b (SLC34A2) (Rattus norvegicus, UniProt Q9JJ09)?
OUT: 1 to 7.94 µM

IN: Given the entry `COCCOCCOCCOCCOCCOCCOCCOCC(=O)N1CCN(CCN(C)C(=O)c2cccc(C(=O)Nc3ccc(N4CCCCC4)cc3-c3cc(C(=O)N[C@H]4CCCc5ccccc54)ccn3)c2)CC1` , what IC50 was observed with rat NaP2b (SLC34A2) (Rattus norvegicus, UniProt Q9JJ09)?
OUT: 1 to 7.94 µM

IN: Given the entry `CCN(CC)c1ccc(NC(=O)c2cccc(CCCOCCOCCOCCOCCC(=O)O)c2)c(-c2cc(C(=O)NCc3cccc(C(F)(F)F)c3)ccn2)c1` , what IC50 was observed with rat NaP2b (SLC34A2) (Rattus norvegicus, UniProt Q9JJ09)?
OUT: 1 to 7.94 µM

* * *

system-name: rat NaP2b (SLC34A2) (Rattus norvegicus, UniProt Q9JJ09)
Construct: host or cells: HEK293
protocol: Inhibition of NaP2b-mediated Pi (33P) uptake in transfected HEK293 cells, rat NaP2b
Format: cell-based
recorded-conditions: 33P Pi uptake, 0.1 mM phosphate, value given as pIC50 range
I'd be grateful if you could share measured IC50 for these entries.

IN: Given the entry CC(=O)NC(C(=O)O)C(C)(C)SCc1cccc(C(=O)Nc2ccc(N3CCCCC3)cc2-c2cc(C(=O)NCc3cccc(C(F)(F)F)c3)ccn2)c1 (stereo not drawn) , what IC50 was observed with rat NaP2b (SLC34A2) (Rattus norvegicus, UniProt Q9JJ09)?
OUT: 10 to 31.6 µM

IN: Given the entry `O=C(O)CCCNC(=O)Cc1cccc(SCc2cccc(C(=O)Nc3ccc(N4CCCCC4)cc3-c3cc(C(=O)NCc4cccc(C(F)(F)F)c4)ccn3)c2)c1` , what IC50 was observed with rat NaP2b (SLC34A2) (Rattus norvegicus, UniProt Q9JJ09)?
OUT: 1 to 7.94 µM

IN: Given the entry `O=C(O)CCSCc1cccc(C(=O)Nc2ccc(N3CCCCC3)cc2-c2cc(CNCc3cccc(C(F)(F)F)c3)ccn2)c1` , what IC50 was observed with rat NaP2b (SLC34A2) (Rattus norvegicus, UniProt Q9JJ09)?
OUT: 10 to 31.6 µM

IN: Given the entry `COCCNC(=O)N1CCN(CCN(C)Cc2cccc(C(=O)Nc3ccc(N4CCCCC4)cc3-c3cc(C(=O)NCc4cccc(C(F)(F)F)c4)ccn3)n2)CC1` , what IC50 was observed with rat NaP2b (SLC34A2) (Rattus norvegicus, UniProt Q9JJ09)?
OUT: 1 to 7.94 µM

IN: Given the entry `O=C(O)CCSCc1cccc(C(=O)Nc2ccc(N3CCCCC3)cc2-c2cc(C(=O)NCc3ccc(OCc4ccccc4)cc3)ccn2)c1` , what IC50 was observed with rat NaP2b (SLC34A2) (Rattus norvegicus, UniProt Q9JJ09)?
OUT: 1 to 7.94 µM

IN: Given the entry `CCN(CC)c1ccc(NC(=O)c2cccc(C(=O)N(C)CCN3CCOCC3)c2)c(-c2cc(C(=O)N[C@H]3CCCc4ccccc43)ccn2)c1` , what IC50 was observed with rat NaP2b (SLC34A2) (Rattus norvegicus, UniProt Q9JJ09)?
OUT: < 1 µM
